Recorded values, source patent US7247734B2.

# pIC50 annotations
- assay_target: yeast HSP90 (Saccharomyces cerevisiae)
- Construct: made in house; host or cells: E. coli
- Sequence (P02829 whole entry, looked up): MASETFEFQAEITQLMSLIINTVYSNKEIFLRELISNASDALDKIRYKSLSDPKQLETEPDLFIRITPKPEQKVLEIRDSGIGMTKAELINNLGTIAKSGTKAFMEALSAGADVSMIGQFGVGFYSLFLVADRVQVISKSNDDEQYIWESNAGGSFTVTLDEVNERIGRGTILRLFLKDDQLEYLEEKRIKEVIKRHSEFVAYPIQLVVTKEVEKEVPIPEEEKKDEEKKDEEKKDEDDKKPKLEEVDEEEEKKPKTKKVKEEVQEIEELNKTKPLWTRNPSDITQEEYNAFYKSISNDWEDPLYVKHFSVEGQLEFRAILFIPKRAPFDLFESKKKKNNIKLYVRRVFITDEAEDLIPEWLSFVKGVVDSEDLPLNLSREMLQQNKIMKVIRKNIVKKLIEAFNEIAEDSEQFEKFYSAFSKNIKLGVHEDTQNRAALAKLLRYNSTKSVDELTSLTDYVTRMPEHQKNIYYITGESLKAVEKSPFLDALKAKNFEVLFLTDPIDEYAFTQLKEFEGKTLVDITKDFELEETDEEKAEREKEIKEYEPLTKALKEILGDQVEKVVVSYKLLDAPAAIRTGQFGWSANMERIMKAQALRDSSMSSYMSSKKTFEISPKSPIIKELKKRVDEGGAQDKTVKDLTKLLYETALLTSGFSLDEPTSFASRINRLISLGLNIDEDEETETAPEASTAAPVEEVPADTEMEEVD
- test: Malachite green HSP90 ATPase assay
- Type: biochemical
- condition_label: activity class; read-out: Hsp90 IC50
pIC50: −log10 of the molar value.

structure_smiles_string	pIC50
N#CCCCOc1ccc(-c2cn[nH]c2-c2cc(Cl)c(O)cc2O)cc1	> 5.00
CCc1cc(-c2n[nH]cc2-c2ccccc2)c(O)cc1OC	< 5.00
CC(=O)Nc1ccc(-c2n[nH]c(C)c2-c2ccc3c(c2)OCCO3)cc1	< 5.00
COc1ccc(-c2c(-c3cc(Cc4ccccc4)c(O)cc3O)n[nH]c2C)cc1	> 5.00
CC(=O)Nc1cccc(-c2n[nH]c(C)c2-c2ccc3c(c2)OCCO3)c1	< 5.00

The reported value for CCc1cc(-c2n[nH]c(C(F)(F)F)c2-c2nc3ccccc3s2)c(O)cc1O in terms of pIC50 is 4.00 to 5.00

The reported value for Oc1cc(O)c(-c2n[nH]cc2-c2ccccc2F)cc1Cl in terms of pIC50 is > 5.00

The reported value for Cc1n[nH]c(-c2cc(Cl)c(O)cc2O)c1-c1ccc(OCCCC#N)cc1 in terms of pIC50 is > 5.00

The reported value for Cc1ccc(O)c(-c2n[nH]c(C)c2-c2ccc3c(c2)OCCO3)c1 in terms of pIC50 is < 5.00
